Attribute: Kd Fold-Change Relative to Lead
# STUDY SYSTEM: Tumor Necrosis Factor-alpha (TNF-α)
# Sequence (P01375 77-233): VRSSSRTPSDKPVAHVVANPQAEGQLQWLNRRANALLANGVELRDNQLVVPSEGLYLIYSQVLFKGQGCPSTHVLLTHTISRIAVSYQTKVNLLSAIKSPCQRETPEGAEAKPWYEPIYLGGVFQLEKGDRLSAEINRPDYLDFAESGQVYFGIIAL
# PROTOCOL SUMMARY: SPR equilibrium; against the TNF1 lead
PROPERTY MEASURED: Kd Fold-Change Relative to Lead (fold)

>>> recorded_number("FERSYLMMPWKFLQSRQGSC (modifications not checked) [TNF1 D4S+P5Y+S11K triple mutant]")
23
>>> recorded_number("FERDYLMMPWKFLQSRQGSC (modifications not checked) [TNF1 P5Y+S11K double mutant]")
6.6
>>> recorded_number("FERDPLKMPWSFLQSRQGSC (modifications not checked) [TNF1 M7K point-mutant]")
2.8
>>> recorded_number("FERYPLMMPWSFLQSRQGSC (modifications not checked) [TNF1 D4Y point-mutant]")
3.6
